Can you tell me max response for the items I'm about to list?
- TARGET_SYSTEM: Retinoic acid receptor RXR-alpha (Homo sapiens)
- EXPERIMENT_DESCRIPTION: qHTS assay for small molecule antagonists of retinoid X receptor alpha signaling (AID 588546);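 note: cells stimulated with 9-cis-retinoic acid as agonist; % is set by controls: 0 for no effect and ±100 for the full control effect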
- REPORTED_CONDITIONS: HEK293T RXRa-UAS-bla, beta-lactamase ratio, antagonist mode
Results filed as inconclusive are left out.
Report the figure in % without appending any unit label.

Q) Requested read-out: max response. Entry: CCCC(C)CO (configuration not stated)
A) -5.45

Q) Record request: max response value, item `c1ccc2n[nH]nc2c1`
A) -7.97

Q) Bench note: what max response did `CC(=O)OCCC(C)C` show?
A) 2.22

Q) Reported max response for `CNc1ccc([N+](=O)[O-])cc1` : what is it?
A) 0.864

Q) Given the compound CCC(O)C(C)(C)C (configuration not stated) , what is its reported max response?
A) -2.9

Q) Using the record for `Cc1ccc(C)o1` , report its max response.
A) -4.44

Q) Requested read-out: max response. Entry: `C=CCCC`
A) 8.21
